pIC50: −log10 of the molar value.
Below are pIC50 measurements against Serine/threonine-protein kinase B-raf (Homo sapiens, UniProt P15056) drawn from the literature.

> print(dat)
                                item.smiles  observed.measurement
1  N#Cc1cnc2[nH]cc(C(=O)c3c(F)ccc(NS(=O)(=O)C4CCCC4)c3F)c2c1                ≥ 5.00
2  CCCS(=O)(=O)Nc1cc(F)c(F)c(C(=O)c2ccc3ncc(N4CCOCC4)nc3c2)c1          6.00 to 7.00
3  Cc1cc(NC(=O)Nc2cc(OC(C)C)cc(C(F)(F)F)c2)cnc1Oc1ccnc(NC(=O)C2CC2)c1                  7.21
4  CCCS(=O)(=O)Nc1ccc(F)c(C(=O)c2c[nH]c3ncc(-c4ccc(OCCCN5CCCC5)nc4)cc23)c1F                > 8.00
5  CCCS(=O)(=O)Nc1cc(F)cc(C(=O)c2ccc3ncc(N4CCOCC4)nc3c2)c1          7.00 to 7.30
6  Nc1cc(NC(=O)Nc2ccc(Oc3ccnc(NC(=O)C4CC4)c3)c(F)c2)cc(C(F)(F)F)c1                  8.15
7  COc1cc2ncnc(Oc3ccc(NC(=O)Nc4ccc(Cl)c(C(F)(F)F)c4)c(F)c3)c2c2c1OCCO2                > 6.70
8  O=C(Nc1cc(-c2ccncc2)cc(C(F)(F)F)c1)Nc1ccc(Oc2ccnc(NC(=O)C3CC3)c2)c(F)c1                  7.45

Proceeding to the next molecule to report its pIC50.
Lookup: Tell me reported pIC50 for "CCCS(=O)(=O)Nc1cc(F)c(F)c(C(=O)c2ccc3ncc(N4CCOCC4)nc3c2)c1F" , tested with Serine/threonine-protein kinase B-raf (Homo sapiens, UniProt P15056).
Found: 7.00 to 7.30

====

Below are IC50 measurements against Serine/threonine-protein kinase B-raf (Homo sapiens) drawn from the literature.

Lab note: each molecule below needs its IC50 filled in.
1. CCCS(=O)(=O)Nc1cc(F)c(F)c(C(=O)c2ccc3ncc(-n4cncc4C)nc3c2)c1F
2. COc1ncc(-c2cnc3[nH]cc(C(=O)c4c(F)ccc(NS(=O)(=O)N(C)C)c4F)c3c2)cn1
3. CCCS(=O)(=O)Nc1ccc(F)c(C(=O)c2c[nH]c3ncc(CCCN4CCCC4)cc23)c1F
4. CS(=O)(=O)Nc1ccc(F)c(C(=O)c2c[nH]c3nccc(Cl)c23)c1F
5. O=C(c1c(F)ccc(NS(=O)(=O)c2ccc(-c3cnco3)s2)c1F)c1c[nH]c2ncc(Cl)cc12
6. CCCS(=O)(=O)Nc1ccc(F)c(C(=O)c2c[nH]c3nccc(Cl)c23)c1F

Found:
1. 50 to 100 nM
2. ≤ 10000 nM
3. ≤ 10000 nM
4. ≤ 10000 nM
5. ≤ 10000 nM
6. ≤ 10000 nM

====

pIC50: −log10 of the molar value.
Below are pIC50 measurements against Serine/threonine-protein kinase B-raf (Homo sapiens, UniProt P15056) drawn from the literature.

Below, 5 compounds whose answers are already recorded.
> print(dat)
                                   compound  observed.measurement
1  CCCS(=O)(=O)Nc1ccc(F)c(C(=O)c2c[nH]c3ncc(-c4ccc(OC)nc4OC)cc23)c1F                ≥ 5.00
2  COc1ccc2c(c1)C(=O)N(c1cc(NC(=O)c3cccc(C(C)(C)C#N)c3)ccc1C)C2          7.00 to 7.30
3  CN1CCC(Oc2cc(NC(=O)Nc3ccc(Oc4ccnc(NC(=O)C5CC5)c4)c(F)c3)cc(C(F)(F)F)c2)C1 (stereo not drawn)                  8.28
4  N#Cc1ccnc2[nH]cc(C(=O)c3c(F)ccc(NS(=O)(=O)c4ccc(F)cc4F)c3F)c12                ≥ 5.00
5  COc1ncc(-c2cnc3[nH]cc(C(=O)c4c(F)ccc(NS(=O)(=O)c5ncn[nH]5)c4F)c3c2)cn1                ≥ 5.00

Lab note: each compound below needs its pIC50 filled in.
1. N#Cc1ccnc2[nH]cc(C(=O)c3c(F)ccc(NS(=O)(=O)C4CCCCC4)c3F)c12
2. COc1cnc2[nH]cc(C(=O)c3c(F)ccc(NS(=O)(=O)c4ccccc4F)c3F)c2c1
3. CS(=O)(=O)Nc1cccc(-c2cnc3[nH]cc(C(=O)c4cccc(NS(=O)(=O)c5cccnc5)c4)c3c2)c1
4. Cc1ccc(NC(=O)c2cccc(C(C)(C)C#N)c2)cc1N1CCN(c2ccccc2)C1=O

Found:
1. ≥ 5.00
2. ≥ 5.00
3. ≥ 5.00
4. < 7.00

====

Below are IC50 measurements against Serine/threonine-protein kinase B-raf (Homo sapiens, UniProt P15056) drawn from the literature.

Below, 5 compounds whose answers are already recorded.
> print(dat)
                                item.smiles  observed.measurement
1  CCCS(=O)(=O)Nc1cc(F)c(F)c(C(=O)c2ccc3ncc(-c4ccccc4)nc3c2)c1F        100 to 1000 nM
2  COc1cnc2[nH]cc(C(=O)c3c(F)ccc(NS(=O)(=O)c4cc(F)ccc4F)c3F)c2c1              < 100 nM
3  CCCS(=O)(=O)Nc1cc(F)c(F)c(C(=O)c2ccc3ncc(-n4ccnc4C)nc3c2)c1F          50 to 100 nM
4  Cc1cc(Oc2ccnc(NC(=O)C3CC3)c2)ccc1NC(=O)Nc1ccc(F)c(OC(F)(F)F)c1                 13 nM
5  COc1ccnc2[nH]cc(C(=O)c3c(F)ccc(NS(=O)(=O)c4ccc(C(F)(F)F)cc4)c3F)c12            ≤ 10000 nM

Lab note: each compound below needs its IC50 filled in.
1. N#Cc1cnc2[nH]cc(C(=O)c3cccc(NS(=O)(=O)C4CCCCC4)c3F)c2c1
2. Clc1ccc(COc2ccc(Cl)c(Cc3c[nH]c4ncccc34)c2Cl)cc1
3. COc1ccnc2[nH]cc(C(=O)c3c(F)ccc(NS(=O)(=O)c4ccccn4)c3F)c12
4. COCCOc1cc2ncnc(Nc3ccc(NC(=O)Nc4ccc(Cl)c(C(F)(F)F)c4)c(Cl)c3)c2c2c1OCCO2
5. CCCS(=O)(=O)Nc1ccc(F)c(C(=O)c2c[nH]c3ncc(-c4cncnc4)cc23)c1F
6. O=C(Nc1ccc(Oc2ccnc(NC(=O)C3CC3)c2)cc1)Nc1cc(C(F)(F)F)ccc1Cl

Found:
["≤ 10000 nM", "≤ 10000 nM", "≤ 10000 nM", "< 200 nM", "≤ 10000 nM", "39 nM"]

====

Below are IC50 measurements against Serine/threonine-protein kinase B-raf (Homo sapiens, UniProt P15056) drawn from the literature.

Below, 3 molecules whose answers are already recorded.
> print(dat)
                                item.smiles  measurement.name  observed.measurement
1  CCCS(=O)(=O)Nc1ccc(F)c(C(=O)c2c[nH]c3ncc(-c4ccc(C(N)=O)nc4)cc23)c1F              IC50              < 0.1 µM
2  COCCOc1ccc(Nc2nccc(-c3sc(N)nc3-c3cccc(NC(=O)c4cccn4C)c3)n2)cc1F              IC50                > 1 µM
3  O=C(c1c(F)ccc(NS(=O)(=O)c2cccc(OC(F)F)c2)c1F)c1c[nH]c2ncc(Cl)cc12              IC50               ≤ 10 µM

Lab note: each molecule below needs its IC50 filled in.
1. N#Cc1cnc2[nH]cc(C(=O)c3c(F)ccc(NS(=O)(=O)CCC(F)(F)F)c3F)c2c1
2. CCS(=O)(=O)Nc1ccc(F)c(C(=O)c2c[nH]c3nccc(C#N)c23)c1F
3. O=C(c1c(F)ccc(NS(=O)(=O)c2ccc3c(c2)CCO3)c1F)c1c[nH]c2ncc(Cl)cc12
4. COc1cc(Cc2c[nH]c3ncc(S(C)(=O)=O)cc23)c(F)cc1OCc1nc2ccccc2[nH]1
5. O=C(c1c(F)ccc(NS(=O)(=O)N2CCCC2)c1F)c1c[nH]c2nccc(Cl)c12

Found:
["≤ 10 µM", "≤ 10 µM", "≤ 10 µM", "≤ 10 µM", "≤ 10 µM"]

====

Below are IC50 measurements against Serine/threonine-protein kinase B-raf (Homo sapiens, UniProt P15056) drawn from the literature.

> print(dat)
                                item.smiles  observed.measurement
1  O=C(c1c(F)ccc(NS(=O)(=O)C2CCCC2)c1F)c1c[nH]c2nccc(Cl)c12               ≤ 10 µM
2  Cc1ccc(Oc2ccnc(NC(=O)C3CC3)c2)cc1NC(=O)Nc1cc(C(F)(F)F)ccc1F              0.011 µM
3  CCCS(=O)(=O)Nc1ccc(F)c(C(=O)c2c[nH]c3ncc(OC4CCOCC4)cc23)c1F               ≤ 10 µM
4  CC(C)CS(=O)(=O)Nc1ccc(F)c(C(=O)c2c[nH]c3nccc(C#N)c23)c1F               ≤ 10 µM
5  Cc1cnc2[nH]cc(C(=O)c3cccc(NS(=O)(=O)c4ccc(C(F)(F)F)cc4)c3F)c2c1               ≤ 10 µM

Proceeding to the next molecule to report its IC50.
Lookup: Requested read-out: IC50. Entry: "COc1cc(Cc2c[nH]c3ncccc23)ccc1OCc1ccc(Cl)cc1F"
Found: ≤ 10 µM
